All figures here come from paper PMC5731780.

- assayTarget: Ub^R74E (Homo sapiens, UniProt P0CG48, R74E)
- Sequence (P0CG48 1-76 R74E limits assumed): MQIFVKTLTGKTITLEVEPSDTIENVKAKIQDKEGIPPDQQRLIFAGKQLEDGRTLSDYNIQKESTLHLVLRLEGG
- assaySummary: NMR titration of 15N-labeled Ub^R74E
- testParameters: read-out: Dissociation constant, Ub^R74E (NMR titration); Table 2
resultType: Kd
# include the unit after the value

Please report the recorded Kd for O=S(=O)(O)c1ccc2c(ccc3nn(-c4ccc(/C=C/c5ccc(-n6nc7ccc8cc(S(=O)(=O)O)ccc8c7n6)cc5S(=O)(=O)O)c(S(=O)(=O)O)c4)nc32)c1 [ubiB, Ubistatin B] .
67.6 µM

###

resultType: pKd
In plain terms, pKd is the concentration in mol/L turned into minus its base-10 logarithm.

Observed pKd on Ub^72 (Homo sapiens, UniProt P0CG48) for `O=S(=O)(O)c1ccc2c(ccc3nn(-c4ccc(/C=C/c5ccc(-n6nc7ccc8cc(S(=O)(=O)O)ccc8c7n6)cc5S(=O)(=O)O)c(S(=O)(=O)O)c4)nc32)c1` , please.
4.14
